# key: entry, value: Adsorption (equilibrium adsorption surface tension)
- test.name: Adsorption capacity, modified Wilhelmy surface balance
- Type: physicochemical
- assay.context: measured after three (3) minutes spreading time; peptide 0.5 mg/ml (~2% of solids)
No end group written: not given here. *: point of attachment. Acm = CC(=O)NC*
measure.name: Adsorption (equilibrium adsorption surface tension)

substance="SP-B(66-78)diLys: SP-B positions 66-78, cysteines 71 and 77 replaced with lysine (LPQLVKRLVLRKS; Pulmonary surfactant-associated protein B; UniProt P07988 266-278, looked up, variant C71K C77K)" endpoint_result="48.9 dynes/cm"
substance="SP-B(58-78)diAla: SP-B positions 58-78, cysteines 71 and 77 replaced by alanine (LDTLLGRMLPQLVARLVLRAS; Pulmonary surfactant-associated protein B; UniProt P07988 258-278, looked up, variant C71A C77A)" endpoint_result="39.7 dynes/cm"
substance="SP-B(69-78): synthesized SP-B peptide fragment, positions 69-78, 10 amino acids (LVCRLVLRCS; Pulmonary surfactant-associated protein B; UniProt P07988 269-278, looked up, fragment)" endpoint_result="56.5 dynes/cm"
substance="SP-B(66-78): synthesized SP-B peptide fragment, positions 66-78, 13 amino acids (LPQLVCRLVLRCS; not fully specified; cysteine pairing not given here; UniProt P07988 266-278, looked up, fragment)" endpoint_result="47.5 dynes/cm"
substance="SP-B(53-78): replica of the 26 residue carboxyl terminal region of native human SP-B (YSVILLDTLLGRMLPQLVCRLVLRCS; Pulmonary surfactant-associated protein B; UniProt P07988 253-278, looked up, fragment)" endpoint_result="47.0 dynes/cm"
substance="SP-B(53-78)diAcm: SP-B positions 53-78, cysteines 71 and 77 capped with S-acetamidomethyl (Acm) groups (YSVILLDTLLGRMLPQLVC(Acm)RLVLRC(Acm)S; UniProt P07988 253-278, looked up, fragment)" endpoint_result="47.0 dynes/cm"

----------
- test.name: Dynamic surface tension versus compressed surface area, modified Wilhelmy Surface Balance (Langmuir Trough)
- Format: physicochemical
- assay.context: peptide 0.5 mg/ml (~2% of solids) in DPPC:PG:PA 68:22:9; 675 ug phospholipid on 445 sq. cm trough; recorded during seven complete cycles
No end group written: not given here. *: point of attachment. Acm = CC(=O)NC*
Assign True to entries whose Surface Tension Maximum meets or exceeds 60 dynes/cm; assign False to the rest.

substance="SP-B(53-78): replica of the 26 residue carboxyl terminal region of native human SP-B (YSVILLDTLLGRMLPQLVCRLVLRCS; Pulmonary surfactant-associated protein B; UniProt P07988 253-278, looked up, fragment)" label_value=False
substance="SP-B(69-78): synthesized SP-B peptide fragment, positions 69-78, 10 amino acids (LVCRLVLRCS; Pulmonary surfactant-associated protein B; UniProt P07988 269-278, looked up, fragment)" label_value=True
substance="SP-B(66-78)diLys: SP-B positions 66-78, cysteines 71 and 77 replaced with lysine (LPQLVKRLVLRKS; Pulmonary surfactant-associated protein B; UniProt P07988 266-278, looked up, variant C71K C77K)" label_value=False
substance="SP-B(53-78)diAcm: SP-B positions 53-78, cysteines 71 and 77 capped with S-acetamidomethyl (Acm) groups (YSVILLDTLLGRMLPQLVC(Acm)RLVLRC(Acm)S; UniProt P07988 253-278, looked up, fragment)" label_value=False
substance="SP-B(66-78): synthesized SP-B peptide fragment, positions 66-78, 13 amino acids (LPQLVCRLVLRCS; not fully specified; cysteine pairing not given here; UniProt P07988 266-278, looked up, fragment)" label_value=False
substance="SP-B(58-78)diAla: SP-B positions 58-78, cysteines 71 and 77 replaced by alanine (LDTLLGRMLPQLVARLVLRAS; Pulmonary surfactant-associated protein B; UniProt P07988 258-278, looked up, variant C71A C77A)" label_value=False
